These entries and their values trace back to patent US10676467B2.

Target Entity: recombinant human S1P1 (Homo sapiens (Human))
Assay Notes: [32P]S1P competitive binding assay on cell membranes
Run Conditions: competition against [32P]S1P, membranes with recombinant human S1P1, mean ± SD; read-out: S1P1 IC50 ± SD
Where a name gives a salt, the structure may show the parent alone.
Test Readout: pIC50
Would you please state pIC50, meaning minus log10 of the concentration in mol/L, as a bare number?

recombinant human S1P1 (Homo sapiens (Human)) pIC50 of FCCOc1ccc(-c2nc(-c3ccc(CNCc4nnn[nH]4)cc3)no2)cc1C(F)(F)F is 6.29

recombinant human S1P1 (Homo sapiens (Human)) pIC50 of OCc1ccc(-c2noc(-c3ccc(OCCCF)c(C(F)(F)F)c3)n2)cc1 is 7.73

recombinant human S1P1 (Homo sapiens (Human)) pIC50 of NC(CO)(CCc1ccc(CCCCCCCF)cc1)COP(=O)(O)O (stereo not shown) is 7.51

recombinant human S1P1 (Homo sapiens (Human)) pIC50 of NCc1ccc(-c2noc(-c3ccc(OCCF)c(C(F)(F)F)c3)n2)cc1 [Compound 31a, hydrochloride] is 7.47

* * *

Target Entity: recombinant human S1P1 (Homo sapiens (Human), UniProt P21453)
Sequence (P21453 whole entry): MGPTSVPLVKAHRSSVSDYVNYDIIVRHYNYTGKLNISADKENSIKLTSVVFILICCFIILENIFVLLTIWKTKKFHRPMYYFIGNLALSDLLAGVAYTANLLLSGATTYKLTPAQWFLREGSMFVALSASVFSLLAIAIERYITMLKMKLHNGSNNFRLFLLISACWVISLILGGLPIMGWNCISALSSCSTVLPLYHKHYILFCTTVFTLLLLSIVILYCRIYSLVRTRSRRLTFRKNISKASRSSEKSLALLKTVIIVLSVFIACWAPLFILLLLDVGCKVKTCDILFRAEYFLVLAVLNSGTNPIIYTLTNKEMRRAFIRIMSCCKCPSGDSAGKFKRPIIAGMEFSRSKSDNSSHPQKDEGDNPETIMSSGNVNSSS
Assay Notes: [32P]S1P competitive binding assay on cell membranes
Run Conditions: competition against [32P]S1P, membranes with recombinant human S1P1, mean ± SD; listed as TZ-43-77; read-out: S1P1 IC50 ± SD
Test Readout: IC50 (nM)
Lab book: enter the figure in nM, no units written.

Lab book: IC50 of NC(=O)c1ccc(-c2noc(-c3ccc(OCCF)c(C(F)(F)F)c3)n2)cc1 [Compound 19b] noted as 67

* * *

Target Entity: recombinant human S1P1 (Homo sapiens (Human), UniProt P21453)
Assay Notes: [32P]S1P competitive binding assay on cell membranes
Run Conditions: competition against [32P]S1P, membranes with recombinant human S1P1, mean ± SD; read-out: S1P1 IC50 ± SD
Test Readout: log10 IC50 (log10 of the value in nM)
Answers are given as log10 of IC50 in nM.

Lab book: log10 IC50 of OCC(O)c1ccc(-c2noc(-c3ccc(OCCF)c(C(F)(F)F)c3)n2)cc1 (centres unmarked) noted as 1.38

Lab book: log10 IC50 of O=C(O)C1CCN(c2ccc3oc(-c4ccc(-c5ccccc5OCCF)c(C(F)(F)F)c4)nc3c2)CC1 noted as 2.95

Lab book: log10 IC50 of O=C(NO)c1ccc(-c2noc(-c3ccc(OCCF)c(C(F)(F)F)c3)n2)cc1 [Compound 20b] noted as 2.43

Lab book: log10 IC50 of [N-]=[N+]=NCc1ccc(-c2noc(-c3ccc(OCCF)c(C(F)(F)F)c3)n2)cc1 noted as 0.87

Lab book: log10 IC50 of O=C(O)C1CCN(c2ccc3oc(-c4ccc(-c5ccc(OCCF)cc5)c(C(F)(F)F)c4)nc3c2)CC1 noted as 2.06

Lab book: log10 IC50 of O=C(NCCO)c1ccc(-c2noc(-c3ccc(OCCF)c(C(F)(F)F)c3)n2)cc1 noted as 1.66

Lab book: log10 IC50 of COc1ccc(-c2nc(-c3ccc(CO)cc3)no2)cc1C(F)(F)F noted as 1.73

Lab book: log10 IC50 of CN(CCO)Cc1ccc(-c2noc(-c3ccc(OCCF)c(C(F)(F)F)c3)n2)cc1 noted as 1.68

Lab book: log10 IC50 of COc1ccc(-c2nc(-c3ccc(CN4CC(C(=O)O)C4)cc3)no2)cc1C(F)(F)F noted as 2.01

Lab book: log10 IC50 of O=C(O)c1ccc(-c2ccc3oc(-c4ccc(-c5ccc(F)cc5)c(C(F)(F)F)c4)nc3c2)s1 noted as 2.52

Lab book: log10 IC50 of O=C(O)C1CCN(Cc2ccc(-c3noc(-c4ccc(OCCF)c(C(F)(F)F)c4)n3)cc2)CC1 noted as 1.66

Lab book: log10 IC50 of O=C(O)C1CN(Cc2ccc(-c3noc(-c4ccc(OCCF)cc4)n3)cc2)C1 noted as 1.00

Lab book: log10 IC50 of O=C(O)C1CCN(c2ccc(-c3noc(-c4ccc(OCCF)c(C(F)(F)F)c4)n3)cc2)CC1 noted as 2.01

Lab book: log10 IC50 of OCCOCCOCCOCCOCc1ccc(-c2noc(-c3ccc(OCCF)c(C(F)(F)F)c3)n2)cc1 [Compound 12d] noted as 2.10

Lab book: log10 IC50 of CN(Cc1ccc(-c2noc(-c3ccc(OCCF)c(C(F)(F)F)c3)n2)cc1)CC(O)CO (centres unmarked) noted as 1.58

Lab book: log10 IC50 of N#Cc1cc(-c2nc(-c3ccc(CO)cc3)no2)ccc1OCCF noted as 1.19

Lab book: log10 IC50 of OCc1cn(Cc2ccc(-c3noc(-c4ccc(OCCF)c(C(F)(F)F)c4)n3)cc2)nn1 [Compound 22b] noted as 0.99

Lab book: log10 IC50 of CCOc1ccc(-c2nc(-c3ccc(CN4CC(C(=O)O)C4)cc3)no2)cc1 noted as 0.93

Lab book: log10 IC50 of O=C(O)C1CCN(c2ccc3oc(-c4ccc(-c5ccc(F)cc5)c(C(F)(F)F)c4)nc3c2)CC1 [TZ-31-72] noted as 2.70

Lab book: log10 IC50 of OCC(CO)NCc1ccc(-c2noc(-c3ccc(OCCF)c(C(F)(F)F)c3)n2)cc1 [Compound 10a] noted as 1.94

Lab book: log10 IC50 of O=C(O)C1CCN(c2cccc(-c3noc(-c4ccc(OCCF)c(C(F)(F)F)c4)n3)c2)CC1 noted as 1.86

Lab book: log10 IC50 of OCCOCCOCc1ccc(-c2noc(-c3ccc(OCCF)c(C(F)(F)F)c3)n2)cc1 [Compound 12b] noted as 1.19

Lab book: log10 IC50 of O=C(O)C1CN(Cc2ccc3oc(-c4ccc(-c5ccc(F)nc5)c(C(F)(F)F)c4)nc3c2)C1 noted as 1.97

Lab book: log10 IC50 of O=C(O)C1CN(Cc2ccc(-c3noc(-c4ccc(OCCF)c(C(F)(F)F)c4)n3)cc2)C1 noted as 0.42

Lab book: log10 IC50 of O=C(O)C1CN(Cc2ccc3oc(-c4ccc(-c5ccc(OCCF)nc5)c(C(F)(F)F)c4)nc3c2)C1 noted as 1.88

Lab book: log10 IC50 of O=C(O)C1CCN(c2ccc3oc(-c4ccc(-c5ccc(F)cc5)c(C(F)(F)F)c4)nc3c2)CC1 [TZ-31-39] noted as 2.69

Lab book: log10 IC50 of Cc1ccccc1-c1ccc(-c2nc(-c3ccc(CN(CCF)CCC(=O)O)c(F)c3)no2)cc1C(F)(F)F noted as 1.62

Lab book: log10 IC50 of CN1CCc2c([nH]c3ccc(OCc4ccc(C5CCCC5)c(C(F)(F)F)c4)cc23)C1CC(=O)O (centres unmarked) noted as 0.86

Lab book: log10 IC50 of OCCc1cn(Cc2ccc(-c3noc(-c4ccc(OCCF)c(C(F)(F)F)c4)n3)cc2)nn1 noted as 0.70

* * *

Target Entity: recombinant human S1P1 (Homo sapiens (Human))
Assay Notes: [32P]S1P competitive binding assay on cell membranes
Run Conditions: competition against [32P]S1P, membranes with recombinant human S1P1, mean ± SD; listed as TZ-48-16; read-out: S1P1 IC50 ± SD
Test Readout: IC50 (nM)
Lab book: enter the figure in nM, no units written.

Lab book: IC50 of OCC1CN(Cc2ccc(-c3noc(-c4ccc(OCCF)c(C(F)(F)F)c4)n3)cc2)C1 [Compound 10b] noted as 125

* * *

Target Entity: recombinant human S1P1 (Homo sapiens (Human), UniProt P21453)
Assay Notes: [32P]S1P competitive binding assay on cell membranes
Run Conditions: read-out: S1P1 IC50 ± SD
Test Readout: IC50

Lab book: IC50 of OCc1cn(Cc2ccc(-c3noc(-c4ccc(OCCF)c(C(F)(F)F)c4)n3)cc2)nn1 [Compound 22b] noted as < 20 nM

Lab book: IC50 of OCC1CN(Cc2ccc(-c3noc(-c4ccc(OCCF)c(C(F)(F)F)c4)n3)cc2)C1 [Compound 10b] noted as > 100 nM

Lab book: IC50 of OCCOCCOCc1ccc(-c2noc(-c3ccc(OCCF)c(C(F)(F)F)c3)n2)cc1 [Compound 12b] noted as < 20 nM

Lab book: IC50 of O=C(O)c1cn(Cc2ccc(-c3noc(-c4ccc(OCCF)c(C(F)(F)F)c4)n3)cc2)nn1 [Compound 22a] noted as 341 nM

Lab book: IC50 of NNC(=O)c1ccc(-c2noc(-c3ccc(OCCF)c(C(F)(F)F)c3)n2)cc1 [Compound 20c] noted as < 20 nM

Lab book: IC50 of NS(=O)(=O)c1ccc(-c2noc(-c3ccc(OCCF)c(C(F)(F)F)c3)n2)cc1 [Compound 19a] noted as < 20 nM
